- study_conditions: 338.15 K; 101.33 kPa; Liquid; Concentric cylinders viscometry
measured_endpoint: viscosity (mPa·s)

// worked examples, viscosity included
molecule: CCCn1cc[n+](C)c1C.O=S(=O)([O-])O [2,3-dimethyl-1-propylimidazolium hydrogen sulfate]
measured_endpoint: viscosity
observed_value: 27.47
--
molecule: CCC[n+]1ccn(C)c1.O=P([O-])(O)O [1-methyl-3-propylimidazolium dihydrogen phosphate]
measured_endpoint: viscosity
observed_value: 11.43
--
molecule: CCCCCn1cc[n+](C)c1.O=C([O-])O [3-methyl-1-pentylimidazolium hydrogen carbonate]
measured_endpoint: viscosity
observed_value: 17.65
--
molecule: CCn1cc[n+](C)c1C.O=S(=O)([O-])O [1-ethyl-2,3-dimethylimidazolium hydrogen sulfate]
measured_endpoint: viscosity
observed_value: 17.96
--
molecule: CCCCC[n+]1ccn(C)c1.O=P([O-])(O)O [1-methyl-3-pentylimidazolium dihydrogen phosphate]
measured_endpoint: viscosity
observed_value: 38.55

a: CCCCn1cc[n+](C)c1C.O=S(=O)([O-])O [1-butyl-2,3-dimethylimidazolium hydrogen sulfate]
b: CCCCn1cc[n+](C)c1.O=C([O-])O [1-butyl-3-methylimidazolium hydrogen carbonate]
c: CCCCn1cc[n+](C)c1.O=P([O-])(O)O [1-butyl-3-methylimidazolium dihydrogen phosphate]
d: CCCCCn1cc[n+](C)c1C.O=S(=O)([O-])O [2,3-dimethyl-1-pentylimidazolium hydrogen sulfate]
(Q) Place the items in sequence of falling viscosity. Note for the reader: the ranking is given by listing the labels in the order requested.
(A) d, a, c, b
